Recorded IC50 values for a group of compounds are listed next.
# measured on: NDM-1 (Klebsiella pneumoniae, UniProt C7C422)
# Sequence (C7C422 whole entry, looked up, species assumed): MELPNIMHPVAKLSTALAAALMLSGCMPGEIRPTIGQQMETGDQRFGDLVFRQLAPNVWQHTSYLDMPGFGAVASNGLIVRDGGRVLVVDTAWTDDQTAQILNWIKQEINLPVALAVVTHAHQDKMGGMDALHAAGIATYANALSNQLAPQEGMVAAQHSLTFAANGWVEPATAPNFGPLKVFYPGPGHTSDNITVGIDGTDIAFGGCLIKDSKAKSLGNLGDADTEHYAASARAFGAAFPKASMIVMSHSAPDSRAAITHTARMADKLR
# test protocol: biochemical
# Assay type: biochemical
# test conditions: fluorescence assay with CCF2-FA substrate; read-out: NDM-1 IC50
Form entry: value (nM) — number only.

{"compound": "NS(=O)(=O)c1nccc(N2CCCC(c3ccccn3)C2)c1-c1nnn[nH]1 (stereo not shown) [Example 220]", "IC50 (nM)": 22.8}
{"compound": "NS(=O)(=O)c1cccc(-c2ccc3nonc3c2)c1-c1nnn[nH]1 [Example 130]", "IC50 (nM)": 10.6}

Asked: Indicate its recorded IC50; the compound in question is CC1(c2ccc(-c3cccc(S(N)(=O)=O)c3-c3nn[nH]n3)cc2)SC(=O)NC1=O (stereo not shown) [Example 75]
Given back: 4.57

Asked: Indicate its recorded IC50; the compound in question is NS(=O)(=O)c1cccc(-c2ccc(N3CCCCC3)cc2)c1-c1nn[nH]n1 [Example 18]
Given back: 2.04

---

# measured on: IMP-1 (Serratia marcescens, UniProt P52699)
# Sequence (P52699 whole entry, looked up): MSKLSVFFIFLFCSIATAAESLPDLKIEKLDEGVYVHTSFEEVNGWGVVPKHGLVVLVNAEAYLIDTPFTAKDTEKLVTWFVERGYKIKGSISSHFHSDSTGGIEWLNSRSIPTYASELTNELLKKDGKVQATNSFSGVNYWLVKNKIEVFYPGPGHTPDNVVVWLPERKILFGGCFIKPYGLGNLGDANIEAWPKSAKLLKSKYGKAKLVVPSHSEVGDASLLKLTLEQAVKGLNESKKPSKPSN
# test protocol: biochemical
# Format: biochemical
# test conditions: fluorescence assay with CCF2-FA substrate; read-out: IMP-1 IC50
property measured: pIC50
// field semantics: pIC50 = negative decimal log of concentration (mol/L)

Here's what some known entries look like.
{"molecule": "CC(C)n1nccc1-c1cccc(S(N)(=O)=O)c1-c1nn[nH]n1", "property measured": "pIC50", "reported result": 5.74}
{"molecule": "NS(=O)(=O)c1c(C(F)(F)F)ccc(NC2(C3CCNC3)CC2)c1-c1nnn[nH]1 (centres unmarked)", "property measured": "pIC50", "reported result": 7.29}
{"molecule": "NS(=O)(=O)c1cccc(-c2ccc(C3CCNC3=O)cc2)c1-c1nnn[nH]1 (centres unmarked)", "property measured": "pIC50", "reported result": 7.88}
{"molecule": "NS(=O)(=O)c1cccc(-c2csc3ccccc23)c1-c1nn[nH]n1", "property measured": "pIC50", "reported result": 6.96}
{"molecule": "NS(=O)(=O)c1c(C(F)(F)F)ccc(-c2ccc(C3CCN(CC4CCNC4)CC3)cc2)c1-c1nnn[nH]1 (centres unmarked)", "property measured": "pIC50", "reported result": 8.96}
{"molecule": "NS(=O)(=O)c1nccc(-c2cnc3[nH]ccc3c2)c1-c1nn[nH]n1", "property measured": "pIC50", "reported result": 6.38}
{"molecule": "NS(=O)(=O)c1cccc(-c2ccc(N3CCOCC3)cc2)c1-c1nn[nH]n1", "property measured": "pIC50", "reported result": 7.38}
{"molecule": "NCC1CCN(c2ccc(C(F)(F)F)c(S(N)(=O)=O)c2-c2nnn[nH]2)CC1", "property measured": "pIC50", "reported result": 7.26}
{"molecule": "Nc1ncnc2cc(-c3ccc(C(F)(F)F)c(S(N)(=O)=O)c3-c3nnn[nH]3)ccc12", "property measured": "pIC50", "reported result": 8.38}
{"molecule": "Nc1cncc(-c2cccc(S(N)(=O)=O)c2-c2nnn[nH]2)n1", "property measured": "pIC50", "reported result": 5.60}

Asked: Indicate its recorded pIC50; the molecule in question is COC(=O)N1CCC(c2ccc(-c3cccc(S(N)(=O)=O)c3-c3nnn[nH]3)cc2)CC1
Given back: 8.43

Asked: Indicate its recorded pIC50; the molecule in question is Cc1nccn1-c1nc(-c2cccc(S(N)(=O)=O)c2-c2nn[nH]n2)cs1
Given back: 6.76

Asked: Indicate its recorded pIC50; the molecule in question is NCCCCN1CC(c2ccc(-c3ccc(C(F)(F)F)c(S(N)(=O)=O)c3-c3nnn[nH]3)cc2)C1
Given back: 7.82

Asked: Indicate its recorded pIC50; the molecule in question is NS(=O)(=O)c1cccc(-c2ccc(C(O)C(F)F)cc2)c1-c1nnn[nH]1 (centres unmarked)
Given back: 7.75

Asked: Indicate its recorded pIC50; the molecule in question is NC1CCN(C2CCN(c3ccc(C(F)(F)F)c(S(N)(=O)=O)c3-c3nnn[nH]3)CC2)C1 (centres unmarked)
Given back: 7.44

Asked: Indicate its recorded pIC50; the molecule in question is N=C(N)N[C@H]1CC[C@H](c2ccc(C(F)(F)F)c(S(N)(=O)=O)c2-c2nnn[nH]2)CC1
Given back: 7.59

---

# Tested on: Serratia marcescens expressing IMP-1 (CL5741)
# test protocol: Antibiotic potentiation activity: synergistic concentration (MITC95) with imipenem, OD600 growth
# Format: cell-based
# test conditions: concentration giving 95% inhibition of bacterial growth
Recorded Serratia marcescens expressing IMP-1 (CL5741) MITC95 values for a group of compounds are listed next.
Form entry: value (µM) — number only.

Here's what some known entries look like.
{"compound": "Cn1cc2cc(-c3cccc(S(N)(=O)=O)c3-c3nnn[nH]3)ccc2n1 [Example 127]", "value unit": "µM", "reported result": 4.688}
{"compound": "NS(=O)(=O)c1cccc(-c2ccc(N3CCOCC3)cc2)c1-c1nn[nH]n1 [Example 12]", "value unit": "µM", "reported result": 6.25}
{"compound": "NS(=O)(=O)c1cccc(CCc2cccnc2)c1-c1nnn[nH]1 [Example 143]", "value unit": "µM", "reported result": 4.688}
{"compound": "CN1CCN(c2cc(-c3cccc(S(N)(=O)=O)c3-c3nnn[nH]3)ccn2)CC1 [Example 116]", "value unit": "µM", "reported result": 9.375}
{"compound": "NS(=O)(=O)c1cccc(C2CCC2)c1-c1nnn[nH]1 [Example 149]", "value unit": "µM", "reported result": 6.25}
{"compound": "NS(=O)(=O)c1cccc(-c2ccc(C(O)C(F)(F)F)cc2)c1-c1nn[nH]n1 (stereo not shown) [Example 3]", "value unit": "µM", "reported result": 1.563}

Asked: Please look at NS(=O)(=O)c1nccc(-c2ccc3ncccc3c2)c1-c1nn[nH]n1 [Example 200] and tell me its recorded Serratia marcescens expressing IMP-1 (CL5741) MITC95 on Serratia marcescens expressing IMP-1 (CL5741).
Given back: 75

Asked: Please look at Cc1cccn2c(-c3cccc(S(N)(=O)=O)c3-c3nnn[nH]3)cnc12 [Example 139] and tell me its recorded Serratia marcescens expressing IMP-1 (CL5741) MITC95 on Serratia marcescens expressing IMP-1 (CL5741).
Given back: 6.25

Asked: Please look at CC(c1ccc(-c2cccc(S(N)(=O)=O)c2-c2nn[nH]n2)cc1)N1CCOCC1 (stereo not shown) [Example 4] and tell me its recorded Serratia marcescens expressing IMP-1 (CL5741) MITC95 on Serratia marcescens expressing IMP-1 (CL5741).
Given back: 6.25

---

Recorded pIC50 values for a group of compounds are listed next.
# measured on: IMP-1 (Serratia marcescens)
# test protocol: biochemical
# Type: biochemical
# test conditions: IMP-1 enzyme, CCF2-FA fluorescence assay; read-out: IMP-1 IC50
// field semantics: pIC50 = negative decimal log of concentration (mol/L)

Here's what some known entries look like.
{"compound": "NS(=O)(=O)c1c(CC2CCNCC2)ccc(-c2ccc(C3CCNCC3)cc2)c1-c1nn[nH]n1", "measured on": "IMP-1 (Serratia marcescens)", "pIC50": 8.01}
{"compound": "Nc1ccc(CCc2cccc(S(N)(=O)=O)c2-c2nn[nH]n2)cn1", "measured on": "IMP-1 (Serratia marcescens)", "pIC50": 6.96}
{"compound": "CN(CCO)Cc1ccc(-c2cccc(S(N)(=O)=O)c2-c2nnn[nH]2)cc1", "measured on": "IMP-1 (Serratia marcescens)", "pIC50": 6.64}
{"compound": "NS(=O)(=O)c1cccc(-c2ccc(CNCCc3ncc[nH]3)cc2)c1-c1nnn[nH]1", "measured on": "IMP-1 (Serratia marcescens)", "pIC50": 6.67}
{"compound": "Nc1ccnc2cc(-c3ccc(C(F)(F)F)c(S(N)(=O)=O)c3-c3nnn[nH]3)ccc12", "measured on": "IMP-1 (Serratia marcescens)", "pIC50": 7.06}
{"compound": "CC(C(=O)O)N(C)Cc1ccc(-c2cccc(S(N)(=O)=O)c2-c2nnn[nH]2)cc1 (stereo not drawn)", "measured on": "IMP-1 (Serratia marcescens)", "pIC50": 7.22}

Asked: Indicate its recorded pIC50; the compound in question is NS(=O)(=O)c1cccc(-c2ccc(C3(O)CNC3)cc2)c1-c1nn[nH]n1
Given back: 6.29

Asked: Indicate its recorded pIC50; the compound in question is NS(=O)(=O)c1nccc(N2CCCC(Cc3cccnc3)C2)c1-c1nnn[nH]1 (stereo not drawn)
Given back: 5.82

Asked: Indicate its recorded pIC50; the compound in question is NS(=O)(=O)c1nccc(N2CCC(O)CC2)c1-c1nnn[nH]1
Given back: 5.95

Asked: Indicate its recorded pIC50; the compound in question is NS(=O)(=O)c1cccc(-c2ccc(CN3C[C@H](O)C[C@H]3CO)cc2)c1-c1nnn[nH]1
Given back: 6.84

Asked: Indicate its recorded pIC50; the compound in question is Nc1ncc(-c2cccc(S(N)(=O)=O)c2-c2nnn[nH]2)cn1
Given back: 5.86

Asked: Indicate its recorded pIC50; the compound in question is Cn1cncc1C[C@@H](NCc1ccc(-c2cccc(S(N)(=O)=O)c2-c2nnn[nH]2)cc1)C(=O)O
Given back: 6.63

Asked: Indicate its recorded pIC50; the compound in question is NC(=O)Cc1ccc(-c2ccc(C(F)(F)F)c(S(N)(=O)=O)c2-c2nn[nH]n2)cc1
Given back: 8.66
